assay-summary: yeast display, Sf9 membrane polyspecificity reagent, FACS + sequencing; frameworks hold sequencing errors

sequence-input	polyreactivity (PSR sort gate)
QVQLVESGGGLVQAGGSLRLSCAASGYTRFYAMGWYRHAPGKERELVAAISSSGGTTYYADSVKGRLTISRDNAKNTVYLQMNSLKPDDSAVYYCAKYVSYCRTLYEYWGQGTQVTVSS	high polyreactivity
QVQLVESGGGLVQAGVSLRLSCAASGTFFGYAMGWYRQAPGKERELVASITSGDSTNYADSVKGRFTISRDNAKKTVYLQMNSLKPEDTAVYYCNADRFADYDYWGQGTQVTVSS	low polyreactivity
QVQLVESGGGLVQAGGSLRLSCAASGFTFRGYAMGWYRQAPGKERELVASISYRGDSTYYADSVKGRFTISRDNAKNTVYLQMNSLKPADTAGYYCNKLLASYYLPGFDYWGQGTQVTVSS	low polyreactivity
QVQLVESGGGLVQAGGSLRLSCAASGIIFASNAMGWYRQAPGKERELVAAINRSGGSTYYADSVKGRFTISRDNAKNTVYLQMNSMKPEDTAVYYCAADYRFYSPTKYSYDYWGQGTLVTVSS	high polyreactivity

###

assay-summary: yeast display, Sf9 membrane polyspecificity reagent, FACS + sequencing; frameworks hold sequencing errors
measurement-kind: polyreactivity (PSR sort gate)

sequence-input	polyreactivity (PSR sort gate)
QVQLVESGGGLVQAGGSLRLSCAASGSTSYWYAMGWYRQAPGKERELVAAISSDDSTNYADSVKGRFTISRDNAKNTVYLQMNSLKPEDTAVYYFNREHYLIRYDYWGQGTQVTVSS	low polyreactivity
QVQLVESGGGLVQAGGSLRLSCAASGTFAVYTMGWYRQAPGKERELVAAITKSGGSTYYADSVKGRFTISRDNAKNTVYLQMNRLKPEDTAVYYCATRDSPRTKNGYYYWGQGTQVTVSS	high polyreactivity
QVQLVESGGGLVQAGGSHRLSCAASGITFTGYGMGWYRQAPGKERELVAAIRLRTGSTYFADSVKGRFTISRDNAKNTVYLQMNSLKPEDTAVYYCNKVTVYRFRGVSWGQGTQVTVSS	high polyreactivity
QVQLVESGGGLVQAGGSLRLSCAASGFTFYTNAMGWYRQAPGKERELVADITTSGGDTYYADSVKGRFTISRDNAKNTVYLQMNSLTPEDTAVYYCGEFWTYWGYGQYDYWGQCTQVTVSS	low polyreactivity
QVQLVESGGGLVQAGGRLRLTCAASGLTFYSYAMRCYRQAPAKERELVAAISWTGGSTYYADSEKGRFTISRDNAKNTVYLQMNSLKPEDTAVYYCAAVDYWVSGDYYWGQGTQVTVSS	high polyreactivity

Attention now shifts to the item below.
# input Which polyreactivity (PSR sort gate) reading was recorded for the sequence `QVQLVESGGGLVLAGGSLRLSSAASGFTFSPYAMGWYRQAPGKERELVPAISASGGRTYYADSVKGRFTISRDYAKNTVYLQMNSLKPEDTAVYYCAAKLYDSGGRYWYDYWGQGTQVTVSS` ?
# output high polyreactivity

###

assay-summary: yeast display, Sf9 membrane polyspecificity reagent, FACS + sequencing; frameworks hold sequencing errors
measurement-kind: polyreactivity (PSR sort gate)

sequence-input	recorded-measurement
QVQLVESGGGLFQAGGSLRLSCAASGSIFRDNVMVWYIHAPGKERELVAVITSGGSTNYADSVKGRFTISRDNAKNTVYLQMNSLKPEDTAVYYCNAAKTGSQSRLEYWGQGTQVTVSS	high polyreactivity
QVQLVESGGGLVQAGGSLRLSCASSGIIFYTYAMGWYRQAPGKERELDAAITQTSAPTYYADSVKGRFTISRDNAKNTVYLQMNSLNPEDTAVYYCAAVPSYRVQGGRMYYWGQGTQVTVSS	high polyreactivity

###

assay-summary: yeast display, Sf9 membrane polyspecificity reagent, FACS + sequencing; frameworks hold sequencing errors
measurement-kind: polyreactivity (PSR sort gate)

# annotated cases, reported polyreactivity (PSR sort gate) shown
sequence-input	recorded-measurement
QVQLVESGGGLVQAGGSLRLICAASGRTFRYNAMGWYRQAPGKERELVAAITLGASRTYYADSVKGRFTISRDNAKNTVYLQMNSLKPEDTAVYYCNAVGRRNVDSSLNDYWGQGTQVTVSS	low polyreactivity
QVQLVESGGGLVQAGGSLRLSCAASGITLYDNAMGWYRQAPGKERELVAAINVNDVSTYYADSVKGRFTISRDNAKNTVYLQMNSLKPEDTAVYYCAADSLYYGIGYWVVRYDYWGQGTQVTVSS	low polyreactivity
QVQLVESGGGLVQAGGSLRLSCAASGRIYGIYAMGWYRQAPGKERDLVARITGGGSTNYADSVKGRFTISRDNAKYTVYLQMNSLKPEDTAVYYCAATVRRIVGNITRYDYWGQGTQVTVSS	low polyreactivity
QVQLVESGGGLVQAGGSLRLSCAASGRIFYYNTMGWYRQAPGKERELVAAISYRGGSTYYADSVKGRFTISRDNAKNTVYLQMNSLKTEDTAVYYCAAPVRQSSYTRYDSWGQGTQVTVSS	high polyreactivity
QVQLVESGGGLVQAGGSLRLSCAASGIIFDYNAMGWYRQAPGKERELVAAISGRSGRTYYADSVKGRFTISRDNAMNTVYLQMNSLKPEDTAVYYCAARWYAGGNYWGQGTQVTVSS	high polyreactivity

Let us examine a further case.
# input Find the recorded polyreactivity (PSR sort gate) belonging to `QVQLVESGGGLVQAGGSLRLSCAASGFIFSRYVMGWYRQAPGKERELVAAISRGGSTYYADSVKGRFTISRDNAKNTVYLQMNSLKPEDTAVYYCAVRSTRFLIYYPPYDYWGQGTQVTVSS` and report it.
# output high polyreactivity

###

assay-summary: yeast display, Sf9 membrane polyspecificity reagent, FACS + sequencing; frameworks hold sequencing errors
measurement-kind: polyreactivity (PSR sort gate)

Please review the following examples before continuing.
sequence-input	recorded-measurement
QGQLVESGGGLVQAGGSLRLSCAASGNTFGKNAMGWYRQAPGKERELVAAIRSSGGSTYYADSVKGRFTISRDNAKNTVYLQMNSLKPEDSAVYYCNADVIRQTDGYDYWGQGTLVTVSS	high polyreactivity
QVQLVESGGGLVQAGGSLRLSCAASGSISATYAKGWYRQAPGKERELVAAISRNGGSTYYADSVKGRFTISRDNAKNTVYLQMNSLKPEDTAVYYCATSSSKSMYWGQGTQVTVSS	high polyreactivity
QVQLVESGGGLVQAGGSLRLSCAASGRIIVPYGMGWYRQAPGKERELVAAITTGGSTNYADSVKGRFTISRDNAKNTVYLQMNSLKPEDTAVYYCAVDWYPQLIYSFNSELEYWGQGTQVTVSS	low polyreactivity
QVQLVESGGGLVQAGGSLRLSCAASGNIFGQYAMGWYRQAPGKEREFVAAITWSGGSTYYADSVKGRFTISRDNAKNTVYLQMNSLKPEDTAVYYCAADYGKTHRYDYDYWGQGTQVTVSS	low polyreactivity
QVQLEESGGGLVQAGGSLRLSCAASGSTFSGYAMGWYIPAPGKERELVATIRRGGSTYADSVKGRFTISRDNAKNTVYLQMNSLKPEDTAVYYCAADAYVSSQPMDYWGQGTQVTVSS	high polyreactivity
QVQLVESGGGLVQAGGSLRLSCAASGRTFVFNAMGWYRQAPGKERELVAAISRSGGSTYYADSVKGRFTISRDNAKNTVYLQMNSLKPEDTAVYYCAADKYYLFALYEYGYWGQGTQVTVSS	high polyreactivity
QVQLVESGGGLVQAGGSLRLSCAASGSTFYPNAKGWYRQAPGKDREFVAASSTSAGRTYYADSVKGRFTISRDNAKKTVYLQINSLKPEDTAVYYCNARYWVYYVYEYDSWGQGTQVTVSS	low polyreactivity

Turning now to a further sequence:
# input Which polyreactivity (PSR sort gate) reading was recorded for the sequence `QVQLVESGGGLVQARGSLRLSCAASGRTFRYYTMGWYRQAPGKEREFVAAITFRGGSTYYADSVKGRFTISRDNAKNTVYLQMNSLKPEDTAVYYCAAVGRYSRYPYSDTYGYWGQGTQVTVSS` ?
# output high polyreactivity

###

assay-summary: yeast display, Sf9 membrane polyspecificity reagent, FACS + sequencing; frameworks hold sequencing errors
measurement-kind: polyreactivity (PSR sort gate)

sequence-input	measurement-kind	recorded-measurement
QVQLVESGGGLVQAGGSLRLSCAASGFTFAYYAMGWYRQAPGKERELVAAISYSGGSTYYADSVKGRFTISRDNAKNTVYLQMNSLKPVDTAVYYCAAEAGRRYNWGYDYWGQGTQVTVSS	polyreactivity (PSR sort gate)	high polyreactivity
QVQLVESGGGLVQAGGSLRLSCAASGSIFGYYAMGWYRQAPGKERELVAAIDSGGSTYYADSVKGRFTISRDNAKNTVYLQMNSLKPEDTAVYYCATDYSGLRYDYWGQGTQVTVSS	polyreactivity (PSR sort gate)	low polyreactivity
QVQLVESGGGLLQAGGSLRLSCAASGSIIFYYAMGWYRQAPGKEREFVAAITRSGVRTYYADSGKGRFTISRDNAKNTVYLQMNSLKPEDNAVYYCHADYGFYRPVLMGYWGQGTQVTVSS	polyreactivity (PSR sort gate)	low polyreactivity
QVQLVESGGGLVQAGGSLRLSCAASGSIFARYAMGWYRQAPGKERELVAAISRNGGSTYYADSVKGRFTISRDNAKNTVYLQMNSLKPEDTAVYYCAATQVGHYRIYDYWGQGTQVTVSS	polyreactivity (PSR sort gate)	low polyreactivity
QVQLVESGGGLVQAGGSLRLSSAASGSTFGSYTMGWYRQAPGKERELVAAINWSGGNTYYADSVKGRFTISRDNAKNTVYLQMNSLKPEDPAVYYCAAAFYIYGVEGDYWGQGTQVTVSS	polyreactivity (PSR sort gate)	low polyreactivity

# input Record request: polyreactivity (PSR sort gate) value, item `QVQLVESGGGLVQAGGSLRLSSAASGRIFDYYAMGWYRQAPGKESELVAAISSGSSTNYADSVKGRFTISRDNAKNTFYLQMNSLKPEDTAVYYCAATYGYLRRNHYNYWGQGTQVTVSS`
# output high polyreactivity

# input sequence: `QVQLVESGGGIVQAGGILRLSCAASGRISVFNDMGWYRQAPGKERELVAAITSGGSTKYADSVKGRFTISRDNAKNTVYLQMNSLKPEDTAVYYCASLYQFHGKIWDGDYWGQGTQVNVSS` ; wanted: its polyreactivity (PSR sort gate)
# output low polyreactivity
